assay: APR_HepG2_MitoMembPot_72hr: Apredica 72-hour HepG2 Assay for Mitochondrial Membrane Potential (AID 2282917); settings: imaging, actives raise or lower the signal
Activity calls are given as the source filed them. Rule for the calls: active = hit-call score of the fitted dose curve at least 0.9, where 1 is the maximum; inactive = score below 0.9.
Valid outcomes are listed here; reply with one: active, inactive

The following compounds have reported results that may help.
smiles input: CC(C)(C)c1cc(O)ccc1O
qualitative label: inactive
--
smiles input: CCN1CCC2(CC1)COc1cc3c(cc12)N(C(=O)c1ccc(-c2ccc(-c4nnc(C)o4)cc2C)cc1)CC3
qualitative label: active

Test call, this compound: CCCCCCCCc1ccc(O)cc1
active

# lookup: test call for ClCC(Cl)CCl
inactive

Per the assay record, what outcome was assigned to O=c1[nH]c(=O)[nH]c(=O)[nH]1 ?
active

* * *

read-out: CD40, CD40 (gene 958); test: BSK_SAg_CD40: BioMAP Diversity Plus: SAg Assay for CD40 Biomarker Activity (AID 2283088); conditions: primary human HUVEC with PBMC; actives raise or lower the signal
Calls of active or inactive are those of the source. The calls were made as follows: active = hit-call score of the fitted dose curve at least 0.9, where 1 is the maximum; inactive = score below 0.9.
measured quantity: AC50

Previously resolved entries follow.
molecule: OCc1ccco1
AC50: inactive

molecule: CCOC(=O)/C=C(C)/C=C/C[C@@H](C)CCCC(C)C
AC50: 25.8 µM (active)

molecule: CC(C)(C)CC(C)(C)c1ccc(O)cc1
AC50: 7.96 µM (active)

molecule: O=C(Nc1ccc2[nH]ccc2c1)c1cc2cc(F)ccc2n1Cc1cccc(F)c1
AC50: 8.2 µM (active)

molecule: NC(=O)O
AC50: inactive

Return AC50 (reported value) for this molecule: COc1cc(OC)nc(NC(=O)NS(=O)(=O)c2ncccc2C(=O)N(C)C)n1
inactive

Indicate its recorded AC50; the molecule in question is ClC(Cl)=C(Cl)C(Cl)=C(Cl)Cl
inactive

* * *

assay: ATG_M_19_CIS: Attagene CIS-FACTORIAL HepG2 Assay for M19 Transcription Factor (Internal Marker) (AID 2282939); details: HepG2 Attagene CIS-FACTORIAL M19 internal marker reporter; actives raise or lower the signal
Activity calls are given as the source filed them. Rule for the calls: active = hit-call score of the fitted dose curve at least 0.9, where 1 is the maximum; inactive = score below 0.9.

smiles input: COP(=S)(OC)Oc1c(Cl)cc(C)cc1Cl
outcome: inactive
--
smiles input: Nc1ncc([N+](=O)[O-])s1
outcome: inactive
--
smiles input: O=C(NCO)NCO
outcome: inactive

* * *

molecular target: Cellular tumor antigen p53 (Homo sapiens); assay: TOX21_p53_BLA_p2_ratio: Tox21 HCT-116 p53 Agonism Beta-lactamase Assay, Ratio, Phase 2 (AID 2283592)
Records with an inconclusive call do not appear. Activity calls are given as the source filed them. Rule for the calls: active = hit-call score of the fitted dose curve at least 0.9, where 1 is the maximum; inconclusive = response in the unintended direction; inactive = score below 0.9.
Respond with a class label; see active, inactive

molecule: N#Cc1ccccn1
qualitative label: inactive
--
molecule: C=C(C)C(=O)[O][Sn]([CH2]CCC)([CH2]CCC)[CH2]CCC
qualitative label: active
--
molecule: CC(C)(c1ccc(OCC2CO2)cc1)c1ccc(OCC2CO2)cc1 (configuration not stated)
qualitative label: inactive
--
molecule: Nc1ccc(N=Nc2ccc(-c3ccc(N=Nc4c(S(=O)(=O)O)cc5cc(S(=O)(=O)O)c(N=Nc6ccccc6)c(O)c5c4N)cc3)cc2)c(N)c1
qualitative label: inactive
--
molecule: NNC(=S)NN
qualitative label: inactive

Just curious, what result did C=C(C)C#N get here?
inactive

Call for entry COc1cc2c(cc1OC)[C@@]13CCN4CC5=CCO[C@H]6CC(=O)N2[C@H]1[C@H]6[C@H]5C[C@H]43 :
inactive

* * *

read-out: Interleukin-8 (IL8), CXCL8 (gene 3576); assay: BSK_CASM3C_IL8: BioMAP Diversity Plus: CASM3C Assay for Interleukin-8 (IL8) Biomarker Activity (AID 2283042); conditions: primary human coronary artery smooth muscle cells; actives raise or lower the signal;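 note: IL-8 protein level quantified by ELISA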
Calls of active or inactive are those of the source. How the source made its calls: active means hit-call score of the fitted dose curve at least 0.9, where 1 is the maximum; inactive means score below 0.9.
Respond using exactly one of the listed classes: active, inactive

Please review the entries below; each comes with its answer.
compound: COP(=S)(OC)Oc1ccc(Sc2ccc(OP(=S)(OC)OC)cc2)cc1
qualitative label: inactive
--
compound: Cn1sc(Cl)cc1=O
qualitative label: inactive
--
compound: Nc1ccc(-c2ccc(N)c(Cl)c2)cc1Cl
qualitative label: inactive
--
compound: Oc1ccc(-c2ccccc2)cc1
qualitative label: inactive
--
compound: COC(=O)Cc1ccccc1
qualitative label: inactive
--
compound: CCC(=O)C(CC(C)N(C)C)(c1ccccc1)c1ccccc1 (stereo not drawn)
qualitative label: inactive
--
compound: Oc1c(I)cc(I)cc1I
qualitative label: inactive
--
compound: CC(C)(C)c1cc(O)ccc1O
qualitative label: inactive

For ClCC(Cl)CCl , which call appears in the assay record?
inactive

What did the test return for CC1(C)Cc2cccc(O)c2O1 ?
inactive

For O=[N+]([O-])c1ccc(O)c([N+](=O)[O-])c1 , what call appears in the results of this test?
inactive

Per the records of this test, what outcome belongs to O=Cc1cccc(Oc2ccccc2)c1 ?
inactive

Please indicate how the test categorized O=C(OC1CCCCC1)c1ccccc1C(=O)OC1CCCCC1 .
inactive

Which outcome was entered for the compound CC(C)CCCCCCOC(=O)c1ccccc1C(=O)OCCCCCCC(C)C in this test?
inactive

Recorded test outcome, item C=C(C)C(=O)[O][Sn]([CH2]CCC)([CH2]CCC)[CH2]CCC
active

For COc1cc(OC)nc(NC(=O)NS(=O)(=O)c2ncccc2C(=O)N(C)C)n1 , what call appears in the results of this test?
inactive

Would you mind telling me which call this test gave CCCCCCCCC(=O)NCc1ccc(O)c(OC)c1 ?
inactive

For this compound, state the assay outcome: Oc1cccc2cccnc12
inactive

Test call for this compound, please: NC(=O)O
inactive

Outcome? COP(=S)(OC)Oc1ccc(S(=O)(=O)N(C)C)cc1
inactive

What outcome does the record of this test show for BrCCBr ?
inactive

Outcome logged for CCOP(=S)(OCC)SCCS(=O)(=O)CC in this assay:
inactive

Returns: the outcome recorded for O=C(O)C(F)(F)C(F)(F)C(F)(F)C(F)(F)C(F)(F)C(F)(F)F in this assay.
inactive

Look up the recorded call for ClC1(Cl)C2(Cl)C3(Cl)C4(Cl)C(Cl)(Cl)C5(Cl)C3(Cl)C1(Cl)C5(Cl)C24Cl (stereo not drawn) in this test.
inactive

Hi, sorry to bother you, what did the test record for C[C@]12CCC(=O)C[C@@H]1CC[C@@H]1[C@@H]2CC[C@]2(C)[C@@H](O)CC[C@@H]12 ?
inactive

Look up the recorded call for COP(=S)(OC)Oc1cc(Cl)c(Cl)cc1Cl in this test.
inactive

Please state the recorded outcome for this compound: COC(=O)c1sccc1S(=O)(=O)NC(=O)Nc1nc(C)nc(OC)n1
inactive

Could you please tell me the result logged for CC(C)(C)CC(C)(C)c1ccc(O)cc1 in this assay?
active

* * *

experiment: ATG_PPRE_CIS: Attagene CIS-FACTORIAL HepG2 Assay for human Peroxisome Proliferator-activated Response Element (PPRE) (AID 2282958); conditions: HepG2 PPRE cis-element reporter, Attagene transcription factor profiling; actives raise or lower the signal
The source made the active and inactive calls. The calls were made as follows: active = hit-call score of the fitted dose curve at least 0.9, where 1 is the maximum; inactive = score below 0.9.
I would appreciate it if you answered using one of these outcomes: Y for active, N for inactive

Past entries and their recorded results:
smiles input: Cc1ccccc1C(=O)Nc1cccc(OC(C)C)c1
qualitative label: N
--
smiles input: COC(=O)c1sccc1S(=O)(=O)NC(=O)Nc1nc(C)nc(OC)n1
qualitative label: N
--
smiles input: ClC(Cl)=C(Cl)C(Cl)=C(Cl)Cl
qualitative label: N
--
smiles input: CNC
qualitative label: N
--
smiles input: ClC1=C(Cl)[C@]2(Cl)[C@H]3[C@H]([C@H]4C=C[C@H]3C4)[C@@]1(Cl)C2(Cl)Cl
qualitative label: N
--
smiles input: CCC(C)(C)c1ccc(O)c(C(C)(C)CC)c1
qualitative label: Y
--
smiles input: CCN(CC)C(=O)Cl
qualitative label: N
--
smiles input: CC(C)c1ccc(CO)cc1
qualitative label: N

Query: recorded result category for CCOC(=O)Nc1cccc(OC(=O)Nc2ccccc2)c1 in this test
N

Please state the recorded outcome for this compound: O=C(NCO)NCO
N

# fetch the recorded call for CCCCCCCCSC(=O)Oc1cc(Cl)nnc1-c1ccccc1 here
N

Which outcome was entered for the compound C=CCc1ccc(OC)cc1 in this test?
N

Hello, I am checking results. What call was entered for COP(=O)(OC)OC ?
N

For Clc1nc(Cl)nc(Cl)n1 , which call appears in the assay record?
N

* * *

assay: ATG_AP_1_CIS: Attagene CIS-FACTORIAL HepG2 Assay for human Activator Protein 1 (AP-1) (AID 2282931); conditions: HepG2 Attagene cis-factorial AP-1 reporter mRNA; actives raise or lower the signal
Active and inactive are the calls of the source. How the source made its calls: active means hit-call score of the fitted dose curve at least 0.9, where 1 is the maximum; inactive means score below 0.9.
Output constraint: value belongs to yes (active), no (inactive)

Record request — test call for CC(C)c1ccc(CO)cc1
no

Write down the call the test reported for this compound. Item: CCOC(=O)Nc1cccc(OC(=O)Nc2ccccc2)c1
no

* * *

assay: ATG_M_32_CIS: Attagene CIS-FACTORIAL HepG2 Assay for M32 Transcription Factor (Internal Marker) (AID 2282949); settings: HepG2 Attagene cis-factorial M32 reporter, mRNA; actives raise or lower the signal;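 note: background control marker of the multiplexed CIS panel rather than a real target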
Calls of active or inactive are those of the source. Rule for the calls: active = hit-call score of the fitted dose curve at least 0.9, where 1 is the maximum; inactive = score below 0.9.
I would appreciate it if you answered using one of these outcomes: T (active), F (inactive)

Per the assay record, what outcome was assigned to Cc1cc(=O)[nH]o1 ?
F

What classification did CC(=[OH+])/C=C(/C)[O-].CC(=[OH+])/C=C(/C)[O-].CC(=[OH+])/C=C(/C)[O-].[Al] end up with in this test?
F

Test call for this molecule, please: CCOC(=O)Nc1cccc(OC(=O)Nc2ccccc2)c1
F

What outcome does the record of this test show for CC(=O)[O][Hg][c]1ccccc1 ?
F

For O=C(c1ccccc1)C(Cl)Cl , what call appears in the results of this test?
F

For CC(=O)c1cc(C(C)(C)C)cc2c1CCC2(C)C , which call appears in the assay record?
F

Values were extracted from PubChem BioAssay (EPA / NIEHS).
